- tested on: hBTK (full-length BTK, 6HIS-tag cleaved) (Homo sapiens (Human), UniProt Q06187)
- Sequence (Q06187 whole entry): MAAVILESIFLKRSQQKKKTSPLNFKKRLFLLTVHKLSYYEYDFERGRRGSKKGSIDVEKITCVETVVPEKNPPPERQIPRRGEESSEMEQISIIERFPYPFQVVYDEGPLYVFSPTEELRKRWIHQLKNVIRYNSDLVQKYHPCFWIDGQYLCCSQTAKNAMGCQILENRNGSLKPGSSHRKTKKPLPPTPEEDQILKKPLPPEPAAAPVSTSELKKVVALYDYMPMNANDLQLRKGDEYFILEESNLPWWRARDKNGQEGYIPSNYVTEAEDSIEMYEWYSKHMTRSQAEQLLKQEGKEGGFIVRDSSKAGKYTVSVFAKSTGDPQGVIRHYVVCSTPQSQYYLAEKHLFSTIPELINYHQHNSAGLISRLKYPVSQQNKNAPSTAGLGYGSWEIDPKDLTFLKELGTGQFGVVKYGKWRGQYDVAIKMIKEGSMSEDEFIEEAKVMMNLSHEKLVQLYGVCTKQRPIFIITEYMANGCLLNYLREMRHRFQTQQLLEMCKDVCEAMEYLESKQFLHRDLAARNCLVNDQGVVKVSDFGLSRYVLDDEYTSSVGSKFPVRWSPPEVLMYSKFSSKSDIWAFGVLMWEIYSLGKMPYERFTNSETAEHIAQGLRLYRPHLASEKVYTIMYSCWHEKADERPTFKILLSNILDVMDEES
- measurement description: BTK enzymatic activity, IMAP-FP assay (Assay Method B)
- Type: biochemical
- test settings: IMAP-FP, 1.05 nM hBTK, 5 μM ATP; class 100-1000 is given as ≧100 nM-<1 μM; read-out: IC50 Btk activity values - Assay Method B
For each entry below, report its IC50 value.

Give the reported IC50 for "COCCC(=O)N1CCC[C@@H](c2nc(-c3ccc(C(=O)Nc4ccccn4)cc3O)c3c(N)nccn23)C1" (system: hBTK (full-length BTK, 6HIS-tag cleaved) (Homo sapiens (Human), UniProt Q06187)).
10 to 100 nM

Also, "Cn1cc(CN2CCO[C@@H](c3nc(-c4ccc(C(=O)Nc5cc(C6CC6)ccn5)cc4)c4c(N)nccn34)C2)cn1" please.
10 to 100 nM

Also, "CCOc1ccnc(NC(=O)c2ccc(-c3nc([C@@H]4CC[C@H](C)N(C(=O)C5(C)COC5)C4)n4ccnc(N)c34)cc2)c1" please.
< 10 nM

Also, C[C@H]1CC[C@@H](c2nc(-c3ccc(C(=O)Nc4ccccn4)cc3)c3c(N)nccn23)CN1C(=O)C1CC1 (stereo in doubt) please.
< 10 nM

Also, "C[C@H]1CCN(C(=O)C2(C)COC2)C[C@@H]1c1nc(-c2ccc(C(=O)Nc3cc(C(F)(F)F)ccn3)cc2)c2c(N)nccn12" please.
10 to 100 nM

Also, "C[C@@H]1CCN(C(=O)C2(C)COC2)C[C@@H]1c1nc(-c2ccc(C(=O)Nc3cc(C(F)(F)F)ccn3)cc2)c2c(N)nccn12" please.
100 to 1000 nM

Also, CN1CCS(=O)(=O)C(c2nc(-c3ccc(C(=O)Nc4cc(C(F)(F)F)ccn4)cc3)c3c(N)nccn23)C1 (stereo not shown) please.
100 to 1000 nM

Also, "COCC1(C(=O)N2CCO[C@@H](c3nc(-c4ccc(C(=O)Nc5cc(C(F)(F)F)ccn5)cc4)c4c(N)nccn34)C2)CCC1" please.
10 to 100 nM

Also, "C[C@H]1[C@H](c2nc(-c3ccc(C(=O)Nc4cc(C(F)(F)F)ccn4)cc3)c3c(N)nccn23)CCCN1C(=O)C1(C)COC1" please.
10 to 100 nM

Also, "CC1(C(=O)N2CCC[C@@H](n3cc(-c4ccc(C(=O)Nc5cc(C#N)ccn5)cc4)c4c(N)ncnc43)C2)COC1" please.
10 to 100 nM

Also, "Nc1ncc(F)n2c([C@@H]3CCCN(C(=O)C4CC4)C3)nc(-c3ccc(C(=O)Nc4cc(C(F)(F)F)ccn4)cc3)c12" please.
< 10 nM

Also, "COc1ccnc(NC(=O)c2ccc(-c3nc([C@@H]4CC[C@H](C)N(C(=O)C5(C)COC5)C4)n4ccnc(N)c34)cc2)c1" please.
< 10 nM

Also, "C[C@H]1C[C@@H](c2nc(-c3ccc(C(=O)Nc4cc(C(F)(F)F)ccn4)cc3)c3c(N)nccn23)CN(C(=O)C2(C)COC2)C1" please.
< 10 nM
